Data origin, for the record: ChEMBL document CHEMBL1641413

The reader will find pKi measurements below, all made with UniProtKB P28222.
Sequence (P28222 whole entry): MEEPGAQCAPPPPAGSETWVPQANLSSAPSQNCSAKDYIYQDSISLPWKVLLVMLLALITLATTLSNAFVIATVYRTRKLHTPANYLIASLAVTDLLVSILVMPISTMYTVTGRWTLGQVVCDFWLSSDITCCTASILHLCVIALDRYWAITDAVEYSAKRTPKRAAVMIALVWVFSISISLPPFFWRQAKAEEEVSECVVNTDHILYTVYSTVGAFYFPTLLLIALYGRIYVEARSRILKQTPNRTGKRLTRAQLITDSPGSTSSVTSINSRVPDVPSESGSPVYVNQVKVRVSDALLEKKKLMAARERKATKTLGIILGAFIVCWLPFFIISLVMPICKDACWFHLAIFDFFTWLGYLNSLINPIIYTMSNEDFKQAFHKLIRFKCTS
pKi is a log-scale quantity: -log10 of the concentration expressed in molar.

# return pKi for "CC(C)c1ccc(S(=O)(=O)c2n[nH]c3ccc(NC4CCNCC4)cc23)cc1.Cl" , test system: UniProtKB P28222
5.56

# return pKi for "Cl.O=S(=O)(c1cccc(Cl)c1)c1n[nH]c2ccc(NC3CCNCC3)cc12" , test system: UniProtKB P28222
5.78

----------
# Assay Target: UniProt P08908
# Sequence (P08908 whole entry): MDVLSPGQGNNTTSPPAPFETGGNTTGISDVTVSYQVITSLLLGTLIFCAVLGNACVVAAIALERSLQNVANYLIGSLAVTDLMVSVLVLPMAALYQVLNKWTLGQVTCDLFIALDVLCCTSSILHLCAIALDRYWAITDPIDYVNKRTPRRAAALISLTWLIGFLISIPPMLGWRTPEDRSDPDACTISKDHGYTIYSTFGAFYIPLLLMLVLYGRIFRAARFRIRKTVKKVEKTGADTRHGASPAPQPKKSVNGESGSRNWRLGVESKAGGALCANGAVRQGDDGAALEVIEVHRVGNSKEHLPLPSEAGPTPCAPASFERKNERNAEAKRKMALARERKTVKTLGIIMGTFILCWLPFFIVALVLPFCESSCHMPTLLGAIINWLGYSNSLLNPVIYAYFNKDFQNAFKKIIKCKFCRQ
Property Label: pKi
pKi is a log-scale quantity: -log10 of the concentration expressed in molar.

Quickly give me recorded pKi for "Cl.O=S(=O)(c1cccc(Cl)c1)c1n[nH]c2ccc(NC3CCNCC3)cc12"
6.34
